Target sequence: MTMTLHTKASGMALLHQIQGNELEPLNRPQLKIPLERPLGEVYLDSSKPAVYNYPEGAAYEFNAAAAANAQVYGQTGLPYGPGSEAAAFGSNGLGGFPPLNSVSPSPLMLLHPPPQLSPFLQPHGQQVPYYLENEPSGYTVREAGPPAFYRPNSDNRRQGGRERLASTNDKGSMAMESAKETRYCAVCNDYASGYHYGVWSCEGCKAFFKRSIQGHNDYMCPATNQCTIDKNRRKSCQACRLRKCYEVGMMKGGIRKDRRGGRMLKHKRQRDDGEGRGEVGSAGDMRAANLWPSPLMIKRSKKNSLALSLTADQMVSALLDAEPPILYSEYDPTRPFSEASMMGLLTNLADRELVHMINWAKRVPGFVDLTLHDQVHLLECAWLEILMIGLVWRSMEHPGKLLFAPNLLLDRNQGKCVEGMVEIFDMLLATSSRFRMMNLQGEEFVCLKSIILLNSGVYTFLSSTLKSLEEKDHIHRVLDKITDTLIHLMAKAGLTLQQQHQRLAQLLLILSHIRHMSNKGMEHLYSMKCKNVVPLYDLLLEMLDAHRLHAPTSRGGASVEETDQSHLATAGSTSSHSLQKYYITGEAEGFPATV
The source made the active and inactive calls.
// reported IC50 per item
quantity: IC50

• CCOc1cccc2cc(-c3nnc(NCc4ccco4)s3)c(=O)oc12 = 26.8 µM (active)
• CC1CCc2c(sc(NC(=O)c3ccc(Cn4cc([N+](=O)[O-])cn4)o3)c2C#N)C1 (centres undefined) = 8.35 µM (active)
• Cn1c(SCC(=O)Nc2ccc3c(c2)oc2ccccc23)nnc1-c1ccccc1 = > 50 µM (not active)
• COc1cc(/C=c2\s/c(=C(/C#N)C(=O)N3CCCC3)n(-c3ccccc3)c2=O)ccc1O = > 50 µM (not active)

Source: ChEMBL document CHEMBL1201862
